Measured Control of weed species, ORYSA (damage score) accompanies every entry in the list below.
test system: Oryza sativa (ORYSA); experiment: Pre-emergence herbicidal activity; assay type: in vivo; settings: pre-emergence application, 1000 g/Ha, evaluated after 13 days, scale 0-5
Metric: Control of weed species, ORYSA (damage score)

{"Molecule": "Cc1nc(-c2cncc(C#N)c2)sc1N(C)C(=O)OC(C)(C)C [Compound A7]", "Numeric Value": 1}
{"Molecule": "Cc1nc(-c2cccnc2)sc1N(C)C(=O)NC(C)(C)C [Compound A21]", "Numeric Value": 0}
{"Molecule": "CN(C(=O)OC(C)(C)C)c1sc(-c2cncc(F)c2)nc1I [Compound A52]", "Numeric Value": 1}
{"Molecule": "Cc1nc(-c2cncc(C(N)=O)c2)sc1N(C)C(=O)OC(C)(C)C [Compound A8]", "Numeric Value": 0}
{"Molecule": "Cc1nc(-c2cncc(C=O)c2)sc1N(C)C(=O)OC(C)(C)C [Compound A5]", "Numeric Value": 0}

----------
tested on: Oryza sativa (ORYSA); experiment: Post-emergence herbicidal activity; assay type: in vivo; conditions: post-emergence application, 1000 g/Ha, evaluated after 13 days, scale 0-5
Metric: Control of weed species, ORYSA (damage score)

{"Smiles Data": "COc1cncc(-c2nc(C(F)(F)F)c(N(C)C(=O)OC(C)(C)C)s2)c1", "Result": 1}
{"Smiles Data": "Cc1nc(-c2cncc(C=O)c2)sc1N(C)C(=O)OC(C)(C)C", "Result": 0}
{"Smiles Data": "COc1cncc(-c2nc(C)c(N(C)C(=O)OC(C)(C)C)s2)c1", "Result": 0}
{"Smiles Data": "Cc1nc(-c2cccnc2)sc1N(C)C(=O)OC(C)(C)C", "Result": 1}
{"Smiles Data": "Cc1nc(-c2cncc(O)c2)sc1N(C)C(=O)OC(C)(C)C", "Result": 0}
{"Smiles Data": "Cc1nc(-c2cncnc2)sc1N(C)C(=O)OC(C)(C)C", "Result": 1}
{"Smiles Data": "Cc1nc(-c2cccnc2)sc1N(C)C(=S)SC(C)(C)C", "Result": 0}
{"Smiles Data": "CN(C(=O)OC(C)(C)C)c1sc(-c2cncnc2)nc1C(F)(F)F", "Result": 2}
{"Smiles Data": "Cc1nc(-c2cncc(OC(F)F)c2)sc1N(C)C(=O)OC(C)(C)C", "Result": 0}
{"Smiles Data": "Cc1nc(-c2cncc(OCc3ccccc3)c2)sc1N(C)C(=O)OC(C)(C)C", "Result": 0}
{"Smiles Data": "Cc1nc(-c2cc(F)c[n+]([O-])c2)sc1N(C)C(=O)OC(C)(C)C", "Result": 0}
{"Smiles Data": "CCOC(=O)N(C)c1sc(-c2cccnc2)nc1C", "Result": 0}
{"Smiles Data": "Cc1nc(-c2cccnc2)sc1N(C)C(=O)NC(C)(C)C", "Result": 0}
{"Smiles Data": "CN(C(=O)OC(C)(C)C)c1sc(-c2cccnc2)nc1C(F)(F)F", "Result": 1}
{"Smiles Data": "CSc1cncc(-c2nc(C)c(N(C)C(=O)OC(C)(C)C)s2)c1", "Result": 1}
{"Smiles Data": "Cc1nc(-c2cncc(Cl)c2)sc1N(C)C(=O)OC(C)(C)C", "Result": 1}
{"Smiles Data": "Cc1nc(-c2cccnc2)sc1N(C)C(=O)NOC(C)(C)C", "Result": 2}
{"Smiles Data": "CN(C(=O)OC(C)(C)C)c1sc(-c2cccnc2)nc1F", "Result": 1}
{"Smiles Data": "Cc1nc(-c2cncc(F)c2)sc1N(C)C(=O)OC(C)(C)C", "Result": 1}
{"Smiles Data": "Cc1nc(-c2cncc(S(C)(=O)=O)c2)sc1N(C)C(=O)OC(C)(C)C", "Result": 1}
